Below: a set of entries, each annotated with reported melting point.

compound	melting point
O=C(CNc1ccc(F)c(F)c1)Nc1c(Cl)ccc2nc(N3CC[C@@H](O)C3)ccc12	238 to 240 °C
O=C(CNc1ccccc1Cl)Nc1c(Cl)ccc2nc(N3CC[C@@H](O)C3)ccc12	215 to 219 °C

For the compound N#Cc1ccc(NCC(=O)Nc2c(Cl)ccc3nc(N4CC[C@@H](O)C4)ccc23)cc1 , give its reported melting point. 230 to 233 °C

For the compound CC(O)C(O)c1ccc2c(NC(=O)CNc3ccc(F)cc3)c(Cl)ccc2n1 (centres unmarked) , give its reported melting point. 135 to 138 °C

For the compound O=C(CNc1ccc(F)cc1)Nc1c(Cl)ccc2nc(N3CC[C@@H](O)C3)ccc12 , give its reported melting point. 242 to 246 °C

====

Where a name gives a salt, the structure may show the parent alone.
outcome.measure: melting point

Answered examples (5):
compound	test.value
O=C(CSc1ccccc1)Nc1c(Cl)ccc2nc(N3CC[C@@H](O)C3)ccc12 [Example 6]	246 to 249 °C
O=C(CNc1cccc(Cl)c1)Nc1c(Cl)ccc2nc(N3CC[C@@H](O)C3)ccc12 (as salt: hydrochloride)	180 °C (dec.)
O=C(COc1ccccc1)Nc1c(Cl)ccc2nc(N3CC[C@@H](O)C3)ccc12	233 to 235 °C
O=C(CNc1ccccc1)Nc1c(Cl)ccc2nc(N3CC[C@@H](O)C3)ccc12	230 to 232 °C
O=C(CNc1ccc(Cl)cc1)Nc1c(Cl)ccc2nc(N3CC[C@@H](O)C3)ccc12 (as salt: hydrochloride)	175 °C (dec.)

// next entry
For the compound O=C(CNc1cccc(F)c1)Nc1c(Cl)ccc2nc(N3CC[C@@H](O)C3)ccc12 , give its reported melting point. 218 to 220 °C
